Provenance of the data: ChEMBL document CHEMBL1201862

Consider the following compounds; for each one, report its GI50.
- Tested on: BT-549
- Measurement protocol: NCI tumour cell line growth inhibition, 48 h
Activity calls are given as the source filed them. No stated cut-off is given here; in the data, active = GI50 up to about 1.1 µM and inactive = higher.

// query GI50 value for entry COc1cccc2ccc3c(c12)C(=O)OC31CCc2c(C)cccc21 (stereo not drawn) > 100 µM (inactive)

// query GI50 value for entry CCCCCCCCCCCCCCCCOP(=O)(O)OP(=O)(O)OCC1OC(n2cnc3c(N)ncnc32)C(O)C1O (stereo not drawn) 18.7 µM (inactive)

// query GI50 value for entry `NNC(=O)c1ccccc1NC(=O)/C(=C/c1ccccc1)NC(=O)c1ccccc1` 60.4 µM (inactive)

// query GI50 value for entry CC(C)CC(C#CCCOC(=O)c1ccccc1)OC(=O)c1ccccc1 (stereo not drawn) > 10 µM (inactive)

// query GI50 value for entry `Cc1cc2nc(N3C(=O)/C(=C/Cc4ccco4)N=C3c3ccccc3)sc2cc1C` 30.5 µM (inactive)

// query GI50 value for entry `Cn1c(=N)n[n+]([O-])c2ccccc21` 1.87 µM (inactive)

// query GI50 value for entry `N/N=C1/C2CN3CCN(C2)CC1(c1ccc([N+](=O)[O-])cc1)C3` > 100 µM (inactive)

// query GI50 value for entry O=C(Nc1ccn(C2CC(I)C(COC(c3ccccc3)(c3ccccc3)c3ccccc3)O2)c(=O)n1)c1ccccc1 (stereo not drawn) 25.6 µM (inactive)

// query GI50 value for entry `CCN(CC)c1c(C(C)(C)C)c(=O)n2ccsc2c1OC(C)=O` 15.5 µM (inactive)

// query GI50 value for entry `CCN1/C(=C/c2ccc3ccccc3[n+]2CC)C=Cc2ccccc21` 1.69 µM (inactive)

// query GI50 value for entry Cc1cccc(-n2c(C)nc3ccc(NC4OC(CO)C(O)C(O)C4O)cc3c2=O)c1 (stereo not drawn) > 100 µM (inactive)

// query GI50 value for entry `NC(Cc1ccccc1)(C(=O)O)C(=O)O` > 100 µM (inactive)

// query GI50 value for entry `N/C(=N\c1ccc(Cl)cc1)NS(=O)(=O)c1c(C(F)(F)F)cccc1C(F)(F)F` 29.3 µM (inactive)

* * *

Consider the following molecules; for each one, report its GI50.
- Tested on: SNB-75
- Measurement protocol: NCI tumour cell line growth inhibition, 48 h
Activity calls are given as the source filed them. Rule as the data show it: active = GI50 up to about 1.1 µM and inactive = higher.

// query GI50 value for entry `CCCCCCCCCC(=O)CC(=O)c1c(O)cc(O)cc1O` 22.2 µM (inactive)

// query GI50 value for entry CCOC(=O)C(NC(=O)CC)(Nc1cc(C)on1)C(F)(F)F (stereo not given) > 100 µM (inactive)

// query GI50 value for entry `N#Cc1c(N)c2c(c(-c3ccccc3)c1-c1ccccc1)C(=O)N(NC(=O)c1ccccc1)C2=O` > 100 µM (inactive)

// query GI50 value for entry COC1(OC)N=C(N)C2(C#N)C(C)CC(=O)N(N(C)C)C12C#N (stereo not given) 40.5 µM (inactive)

// query GI50 value for entry `C=Cn1c([N+](=O)[O-])cnc1/C=C/c1ccc(C(=O)OCCN2CCOCC2)cc1` > 100 µM (inactive)

// query GI50 value for entry O=C1c2ccccc2CCC1C(O)(C(F)(F)F)C(F)(F)F (stereo not given) 26.2 µM (inactive)

// query GI50 value for entry O=[N+]([O-])c1ccc2c(c1)nc(Cc1ccccc1)n2C[C@@H]1CCCN2CCCCC12 (stereo not given in full) 63.5 µM (inactive)

// query GI50 value for entry `COc1ccc2[nH]c3c(c2c1)COc1ccccc1C3=O` 18.6 µM (inactive)

// query GI50 value for entry `CCOP(=O)(OCC)[C@]12C[C@@H](C)C=C[C@H]1COC2=O` > 100 µM (inactive)

// query GI50 value for entry COC(=O)C(CCCCCCCC(C(=O)OC)C1=Nc2nnc(N)n2C1=O)C1=Nc2nnc(N)n2C1=O (stereo not given) 48.3 µM (inactive)
